- System: K-562 leukemia
- Experimental details: NCI tumour cell line growth inhibition, 48 h; in the data active = GI50 below about 0.43 µM; inactive = the rest
One label from this list, please: true (1) (active), false (0) (inactive)

1. COc1cc(-c2nc3ccccc3s2)ccc1OCCCCOc1cc2c(cc1OC)C(=O)N1CCC[C@H]1C=N2 :: true (1)
2. Fc1ccc(-c2ncn(C3CCNCC3)c2-c2ccnc(Oc3ccc4c(c3)OCO4)n2)cc1 :: false (0)
3. CCCCNNC(=O)c1ccc(Br)cc1 :: false (0)
4. CCC[CH2][Sn]([CH2]CCC)([O]C(=O)c1cc(OC)c(OC)cc1OC)[O][Sn]([CH2]CCC)([CH2]CCC)[O]C(=O)c1cc(OC)c(OC)cc1OC :: true (1)
5. CC1=CC2C(C(O)CC3(C)C2CC(C)C32OCOC23COCO3)C2(C)C/C(=C/O)C(=O)C=C12 (configuration not stated) :: false (0)

Input line: # outcome recorded in this test, key = `CCCCCCCCCCCC1=NC(C)(C)CN1C(C)(C)CO`
Output line: false (0)

Input line: # outcome recorded in this test, key = `C=CC(=O)N1CCC(c2ccc(C(N)=O)c(-c3ccc(Oc4ccccc4)cc3)n2)CC1`
Output line: false (0)

Input line: # outcome recorded in this test, key = `COc1ccc2c(c1)[n+](=O)c(C(=O)c1cccs1)c(C(F)(F)F)n2[O-]`
Output line: false (0)

Input line: # outcome recorded in this test, key = `COc1cc2c3c(n(CCCN)c(=O)c2cc1OC)-c1ccc([N+](=O)[O-])cc1C3=O`
Output line: false (0)

Input line: # outcome recorded in this test, key = `COc1ccc2c(c1)/C(=C\c1ccncc1)C(=O)N2`
Output line: false (0)

Input line: # outcome recorded in this test, key = `C/C(=C\c1ccn(-c2ccccc2N)n1)[C@@H]1C[C@@H]2O[C@]2(C)CCC[C@H](C)[C@H](O)[C@@H](C)C(=O)C(C)(C)[C@@H](O)CC(=O)O1`
Output line: true (1)

Input line: # outcome recorded in this test, key = `Cc1ccc(/C=C/c2c(C(=O)/C=C/c3ccccc3)c(C)nc3ccccc23)cc1`
Output line: false (0)

Input line: # outcome recorded in this test, key = `O=C(CCN1CCCC1)Nc1ccc2c(NCc3ccccc3)c3ccccc3nc2c1`
Output line: true (1)

Input line: # outcome recorded in this test, key = `O=[N+]([O-])c1cc[n+]([O-])c2ccccc12`
Output line: true (1)

Input line: # outcome recorded in this test, key = `Cc1ccc(S(=O)(=O)Oc2ccc3c4c(c(=O)oc3c2)CCCCCC4)cc1`
Output line: false (0)

Input line: # outcome recorded in this test, key = `C[C@H](c1ccc(Cl)cc1[N+](=O)[O-])N1C(=O)c2cc(I)ccc2N=C(OCCCN2CCN(C)CC2)[C@@H]1c1ccc(Cl)cc1`
Output line: false (0)

Input line: # outcome recorded in this test, key = Oc1c(C(Nc2ccccc2Br)c2ccccc2)ccc2cccnc12 (configuration not stated)
Output line: false (0)
